test system: Septoria tritici; experiment: Test G: wheat leaf blotch on wheat seedlings, sprayed the day before inoculation, visual disease rating; assay type: in vivo; conditions: 200 ppm; 100 = 100% disease control, 0 = no control relative to controls
Test G disease control rating values by entry
Use % as the unit, but write only the number.

Worked examples follow.
>  <compound>
Fc1ccc(F)c(-c2c(Br)ncn2-c2ccc(Cl)cc2)c1F [compound 330]

>  <Test G disease control rating [%]>
96

$$$$
>  <compound>
Fc1ccc(-n2cnc(Cl)c2-c2c(F)cc(F)cc2F)cc1 [compound 137]

>  <Test G disease control rating [%]>
98

$$$$
>  <compound>
COc1cc(F)c(-c2c(-c3cccc(F)c3)c(C)nn2C)c(F)c1 [compound 78]

>  <Test G disease control rating [%]>
92

$$$$

Which Test G disease control rating is reported with Septoria tritici for this entry: COc1cc(OC)cc(-c2c(Br)nc(C)n2-c2c(F)cc([N+](=O)[O-])cc2F)c1 [compound 651] ?
97

So what Test G disease control rating did Cc1nn(C)c(-c2ccc(Cl)c(F)c2)c1-c1c(F)cccc1F [compound 67] get with Septoria tritici?
80

Can you look up Test G disease control rating on Septoria tritici for Fc1cccc(F)c1-c1c(Cl)nc(Cl)n1-c1ccccc1 [compound 591] ?
97

# value lookup — system Septoria tritici, readout Test G disease control rating, item COc1cc(F)c(-c2c(Cl)nc(Cl)n2-c2cncc(F)c2)c(F)c1 [compound 728]
99

Value wanted: Test G disease control rating (Septoria tritici) of entry Fc1ccc(-n2c(Br)nc(Cl)c2-c2ccc(Cl)c(F)c2)c(Cl)c1 [compound 328]
95

What value of Test G disease control rating on Septoria tritici does Cc1ccc(-n2cnc(Br)c2-c2c(F)ccc(F)c2Cl)cc1 [compound 410] have?
100

The origin of these recorded values is patent US20110045101A1.
